- Tested on: Pseudomonas aeruginosa PAO1
- Assay method text: Inhibition of beta-lactamase activity in Pseudomonas aeruginosa PAO1 deltaDdeltsDh2deltaDh3 assessed as MIC for cefpodoxime antibacterial activity at 16 mg/L by broth microdilution method
Quantity measured: MIC (µg/mL)

Please give the measured MIC for this compound: `C[C@]1(COC(=O)Cc2ccc(O)c(O)c2)[C@H](C(=O)O)N2C(=O)/C(=C/c3cc(Br)ccn3)[C@H]2S1(=O)=O`
1

Please give the measured MIC for this compound: NC(=O)[C@@H]1CC[C@@H]2CN1C(=O)N2OS(=O)(=O)O [AVIBACTAM SODIUM]
1

Please give the measured MIC for this compound: `C[C@]1(COC(=O)Cc2ccc(O)c(O)c2)[C@H](C(=O)O)N2C(=O)/C(=C/c3ccc(F)cn3)[C@H]2S1(=O)=O`
1

Please give the measured MIC for this compound: `C[C@]1(COC(=O)Cc2ccc(O)c(O)c2)[C@H](C(=O)O)N2C(=O)/C(=C/c3ccccn3)[C@H]2S1(=O)=O`
0.5
